Assign IC50 to each entry below.
- testedOn: uterine OT receptors (Rattus norvegicus, UniProt P70536)
- Construct: from tissue; host or cells: uterus of DES-treated rats, crude membranes
- Sequence (P70536 whole entry): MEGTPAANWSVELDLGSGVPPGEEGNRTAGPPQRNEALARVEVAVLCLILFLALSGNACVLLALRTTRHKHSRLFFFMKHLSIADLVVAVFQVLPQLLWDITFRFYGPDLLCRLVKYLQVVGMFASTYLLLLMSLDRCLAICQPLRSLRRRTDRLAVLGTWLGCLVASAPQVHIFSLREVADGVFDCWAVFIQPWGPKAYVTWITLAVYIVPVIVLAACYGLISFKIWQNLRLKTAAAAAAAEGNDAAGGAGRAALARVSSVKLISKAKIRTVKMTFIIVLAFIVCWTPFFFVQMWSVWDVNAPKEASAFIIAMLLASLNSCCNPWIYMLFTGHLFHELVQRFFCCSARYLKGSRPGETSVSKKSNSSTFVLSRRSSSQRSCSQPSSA
- experiment: [^3 H]OT binding to uterine OT receptors, crude membrane preparation of uteri from DES-treated rats
- conditions: rat uterus membranes, 1 nM [^3 H]OT; read-out: Receptor Binding Results IC50 (nM) [^3 H]OT
Square brackets hold non-standard residues; d marks the D form. Peptide text beside a SMILES is read from it. * marks the point of attachment. dPip(4-aza,4-Cbz) = O=C(O)[C@H]1CN(C(=O)OCc2ccccc2)CCN1; dPiz(1,6-dehydro) = O=C(O)[C@H]1CCC=NN1; Pip(4-aza) = O=C(O)[C@@H]1CNCCN1; dNMeF = CN[C@H](Cc1ccccc1)C(=O)O; Pip = O=C(O)[C@@H]1CCCCN1; dPip = O=C(O)[C@H]1CCCCN1; Boc = CC(C)(C)OC(=O)*; OtBu = CC(C)(C)O*
Kindly provide the numeric value in nM only, without the unit symbol.

# lookup: uterine OT receptors (Rattus norvegicus, UniProt P70536) IC50, key = CC[C@H](C)[C@@H]1NC(=O)[C@@H](Cc2ccccc2)NC(=O)[C@@H]2CCCN2C(=O)[C@@H](Cc2ccccc2)N(C)C(=O)[C@H](CCCCNC(=O)OC(C)(C)C)NC(=O)[C@H]2CCC=NN2C1=O [Example 173] (cyclo(I[dPiz(1,6-dehydro)]K(Boc)[dNMeF]P[dF]))
71

# lookup: uterine OT receptors (Rattus norvegicus, UniProt P70536) IC50, key = CC[C@H](C)[C@@H]1NC(=O)[C@@H](Cc2ccccc2)NC(=O)[C@@H]2CCCN2C(=O)[C@@H](Cc2ccccc2)N(C)C(=O)[C@@H]2CCCCN2C(=O)[C@H]2CCC=NN2C1=O [Example 112] (cyclo(I[dPiz(1,6-dehydro)][Pip][dNMeF]P[dF]))
14.7

# lookup: uterine OT receptors (Rattus norvegicus, UniProt P70536) IC50, key = CC[C@H](C)[C@@H]1NC(=O)[C@@H](Cc2ccccc2)NC(=O)[C@@H]2CCCN2C(=O)[C@@H](Cc2ccccc2)N(C)C(=O)[C@H](CC(=O)OC(C)(C)C)NC(=O)[C@H]2CCCCN2C1=O [Example 115] (cyclo(D(OtBu)[dNMeF]P[dF]I[dPip]))
460

# lookup: uterine OT receptors (Rattus norvegicus, UniProt P70536) IC50, key = CC[C@H](C)[C@@H]1NC(=O)[C@@H](Cc2c[nH]c3ccccc23)NC(=O)[C@@H]2CCCN2C(=O)[C@@H](Cc2ccccc2)NC(=O)[C@@H]2CNCCN2C(=O)[C@H]2CCCCN2C1=O [Example 87] (cyclo(I[dPip][Pip(4-aza)][dF]P[dW]))
62

# lookup: uterine OT receptors (Rattus norvegicus, UniProt P70536) IC50, key = CC[C@H](C)[C@@H]1NC(=O)[C@@H](Cc2ccccc2)NC(=O)[C@@H]2CCCN2C(=O)[C@@H](Cc2c[nH]cn2)NC(=O)[C@H]2CN(C(=O)OCc3ccccc3)CCN2C(=O)[C@H]2CCCCN2C1=O [Example 82] (cyclo(I[dPip][dPip(4-aza,4-Cbz)][dH]P[dF]))
73

###

- testedOn: AVP-V1 sites (Rattus norvegicus)
- Construct: crude membrane preparation of male rat liver (AVP-V1 sites); from tissue; host or cells: male rat liver, crude membranes
- Sequence (P30560 whole entry): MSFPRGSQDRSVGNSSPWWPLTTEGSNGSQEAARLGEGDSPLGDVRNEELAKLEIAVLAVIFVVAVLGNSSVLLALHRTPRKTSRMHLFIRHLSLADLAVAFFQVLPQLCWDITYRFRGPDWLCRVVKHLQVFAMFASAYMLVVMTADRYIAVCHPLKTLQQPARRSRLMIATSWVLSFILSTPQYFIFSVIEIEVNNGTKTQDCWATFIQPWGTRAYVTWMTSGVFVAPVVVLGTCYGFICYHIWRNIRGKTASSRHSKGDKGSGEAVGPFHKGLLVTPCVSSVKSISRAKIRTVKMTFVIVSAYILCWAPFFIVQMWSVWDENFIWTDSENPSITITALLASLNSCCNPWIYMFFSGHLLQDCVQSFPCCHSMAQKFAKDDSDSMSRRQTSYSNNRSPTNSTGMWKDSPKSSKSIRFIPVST
- experiment: [^3 H]AVP binding to crude membrane preparation of male rat liver (AVP-V1 sites)
- conditions: Receptor Binding Results IC50 (nM) [^3 H]-AVP-V1
Numbered stars: 1 amine (or outer) side, 2 acyl side, 3 side chain; on linkers, the order of the positions; unused ones are H or OH. Square brackets hold non-standard residues; d marks the D form. Peptide text beside a SMILES is read from it. X2 = O=C(OCc1ccccc1)N1CCN([*:1])[C@H](C(=O)[*:2])C1; NMeI = CC[C@H](C)[C@H](NC)C(=O)O; dNMeF = CN[C@H](Cc1ccccc1)C(=O)O; Chg = N[C@H](C(=O)O)C1CCCCC1; Pip = O=C(O)[C@@H]1CCCCN1; dPip = O=C(O)[C@H]1CCCCN1; dNMeA = CN[C@H](C)C(=O)O
endpoint: IC50

Provide measured IC50 value, entry: O=C1N[C@@H](C2CCCCC2)C(=O)N2CCC[C@@H]2C(=O)N2CCC[C@H]2C(=O)N[C@H](Cc2ccccc2)C(=O)N2CCC[C@H]2C(=O)N[C@@H]1Cc1ccccc1 [Example 67] (cyclo([dF]P[dF][Chg][dP]P))
> 10000 nM

Provide measured IC50 value, entry: CC[C@H](C)[C@@H]1NC(=O)[C@@H](Cc2ccccc2)NC(=O)[C@@H]2CCCN2C(=O)[C@@H](Cc2ccccc2)NC(=O)[C@@H]2CN(C(=O)OCc3ccccc3)CCN2C(=O)[C@H]2CCCCN2C1=O [Example 77] (cyclo(I[dPip][X2][dF]P[dF]))
10000 nM

Provide measured IC50 value, entry: CC[C@H](C)[C@H]1C(=O)N2CCCC[C@@H]2C(=O)N2CCCC[C@H]2C(=O)N(C)[C@H](Cc2ccccc2)C(=O)N2CCC[C@H]2C(=O)N(C)[C@H](C)C(=O)N1C [Example 16] (cyclo([NMeI][dPip][Pip][dNMeF]P[dNMeA]))
> 10000 nM

Provide measured IC50 value, entry: CC[C@H](C)[C@@H]1NC(=O)[C@@H](Cc2cn(CC(=O)OC(C)(C)C)c3ccccc23)NC(=O)[C@@H]2CCCN2C(=O)[C@@H](Cc2ccccc2)N(C)C(=O)[C@@H]2CN(CC(=O)OC(C)(C)C)CCN2C(=O)[C@H]2CCCCN2C1=O
> 10000 nM

###

- testedOn: AVP-V1 sites (Rattus norvegicus)
- Construct: crude membrane preparation of male rat liver (AVP-V1 sites); from tissue; host or cells: male rat liver, crude membranes
- experiment: [^3 H]AVP binding to crude membrane preparation of male rat liver (AVP-V1 sites)
- conditions: Receptor Binding Results IC50 (nM) [^3 H]-AVP-V1
Square brackets hold non-standard residues; d marks the D form. Peptide text beside a SMILES is read from it. dPip(4-aza,4-Cbz) = O=C(O)[C@H]1CN(C(=O)OCc2ccccc2)CCN1; dPhe(4-NH2) = Nc1ccc(C[C@@H](N)C(=O)O)cc1; dNMeF = CN[C@H](Cc1ccccc1)C(=O)O; Pip = O=C(O)[C@@H]1CCCCN1; dPip = O=C(O)[C@H]1CCCCN1
endpoint: IC50

Provide measured IC50 value, entry: CC[C@H](C)[C@@H]1NC(=O)[C@@H](Cc2ccccc2)NC(=O)[C@@H]2CCCN2C(=O)[C@@H](Cc2ccc(N)cc2)NC(=O)[C@@H]2CCCCN2C(=O)[C@H]2CCCCN2C1=O [Example 48] (cyclo(I[dPip][Pip][dPhe(4-NH2)]P[dF]))
10000 nM

Provide measured IC50 value, entry: CN1C(=O)[C@@H]2CCCCN2C(=O)[C@H]2CCCCN2C(=O)[C@H](Cc2ccccc2)NC(=O)[C@@H](Cc2ccccc2)NC(=O)[C@@H]2CCCN2C(=O)[C@H]1Cc1ccccc1 [Example 136] (cyclo(F[dPip][Pip][dNMeF]P[dF]))
> 10000 nM

Provide measured IC50 value, entry: CC[C@H](C)[C@@H]1NC(=O)[C@@H](Cc2ccccc2)NC(=O)[C@@H]2CCCN2C(=O)[C@@H](Cc2ccccc2)N(C)C(=O)[C@H](CC(N)=O)NC(=O)[C@H]2CCCCN2C1=O [Example 118] (cyclo(I[dPip]N[dNMeF]P[dF]))
> 10000 nM

Provide measured IC50 value, entry: CC[C@H](C)[C@@H]1NC(=O)[C@@H](Cc2ccccc2)NC(=O)[C@@H]2CCCN2C(=O)[C@@H](Cc2ccccc2)N(C)C(=O)[C@H]2CN(C(=O)OCc3ccccc3)CCN2C(=O)[C@H]2CN(C(=O)OCc3ccccc3)CCN2C1=O [Example 85] (cyclo([dF]I[dPip(4-aza,4-Cbz)][dPip(4-aza,4-Cbz)][dNMeF]P))
> 10000 nM

Attribution: patent US5225528A
